experiment: PSAC antagonists in infected red cells, primary screen, cell-based, P. falciparum Indochina, OD700, 1 h (AID 1154)
condition.label: P. falciparum Indochina infected RBC osmotic lysis, called active from +8 up or from −8 down
Active and inactive are the calls of the source.
Please answer using one outcome listed in active, inactive

query: What did this assay record as the result for COc1ccc([Si](C)(C)[C@@H]2[C@@H](CC(=O)N(CCO)Cc3ccccc3)O[C@]3(C(=O)N(Cc4cccc(N5C(=O)c6cccc7cccc5c67)c4)c4ccccc43)[C@H]2C)cc1 ?
result: inactive

query: Fill in: this test's call for CC(C)(C)OC(=O)CC[C@]1(C(=O)NCc2ccccc2)N=C(c2ccc(OCCCO)cc2)O[C@H]1c1ccccc1CN=[N+]=[N-] is ___
result: active

query: What is the recorded call for this molecule in the test? C=CC1c2cc(O)c(OC)cc2CCN1Cc1cc2c(cc1Br)OCO2 (stereo unspecified)
result: active

query: What outcome does the record of this test show for CCCCCCCCCCC(O)C1C=CC2C(=O)N(C)C(=O)C2N1NC(=O)OC(C)(C)C (stereo unspecified) ?
result: active

query: What outcome does the record of this test show for COc1cc(CO)cc(I)c1O[C@H]1C=C(C(=O)NCCO)C[C@@H](NCc2ccc(F)cc2)[C@@H]1O ?
result: active

query: Tell me the assay call for C=C[C@@H](OC)[C@H](OC(=O)Nc1ccc(SC)cc1)c1ccc(O)c(F)c1 please.
result: active

query: Recorded test call requested for COc1ccc([Si](C)(C)[C@H]2[C@H](CCn3cc([C@H](O)c4ccccc4)nn3)O[C@@]3(C(=O)N(Cc4ccc(N5C(=O)c6cccc7cccc5c67)cc4)c4ccccc43)[C@@H]2C)cc1
result: inactive

query: Give the logged outcome of this assay for the following molecule: C[N+](C)(C)CCCCCCNC(=O)[C@H]1C[C@H]2C(=O)N[C@@H](Cc3ccccc3)C(=O)N2[C@H]1c1ccc(O)cc1
result: inactive

query: Could you please tell me the result logged for COCCOC(=O)N1C(=O)[C@@]2(c3cc(C#CCCO)ccc31)[C@H](C(=O)Nc1nc3ccccc3s1)[C@H]1C(=O)O[C@H](c3ccccc3)[C@H](c3ccccc3)N1[C@@H]2c1ccccc1OCCO in this assay?
result: inactive

query: Recorded test call requested for CC(C)N1C(=O)C[C@@](C(=O)NCCCN(C)C)(c2ccc([N+](=O)[O-])cc2)[C@H]1c1ccc(CO)cc1
result: inactive

query: Hi, sorry to bother you, what did the test record for CC(CO)N1C(=O)[C@@H]2[C@H]3C(=O)OCC=C[C@H]3OC23C=CCN(CCN2CCOCC2)C(=O)[C@@H]13 (stereo partly specified) ?
result: inactive

query: # fetch the recorded call for COc1ccc(NC(=O)O[C@H]2[C@H](OC(=O)Nc3ccccc3)[C@@H](OC(=O)Nc3ccccc3)[C@@H](OC)O[C@@H]2CO)cc1 here
result: inactive

query: Returns: the outcome recorded for O=C1OCC=C[C@H]2OC34C=CCN(Cn5nnc6ccccc65)C(=O)[C@H]3N(CCCO)C(=O)[C@@H]4[C@@H]12 (stereo partly specified) in this assay.
result: inactive

query: Returns: the outcome recorded for COCCOC(=O)N1C(=O)[C@@]2(c3cc(C#Cc4ccc(OC)cc4)ccc31)[C@H](C(=O)Nc1nc3ccccc3s1)[C@H]1C(=O)O[C@H](c3ccccc3)[C@H](c3ccccc3)N1[C@@H]2c1ccc(O)cc1 in this assay.
result: inactive

query: For COCCCNC(=O)[C@]1(CCS(=O)(=O)c2ccccc2)N=C(c2ccc(OCCCO)cc2)O[C@@H]1c1ccccc1N=[N+]=[N-] , which call appears in the assay record?
result: active

query: Any idea what this test logged for NC(=O)NCC#Cc1ccc2c(c1)[C@]1(C(=O)N2)[C@H](C(=O)O)[C@H]2C(=O)O[C@H](c3ccccc3)[C@H](c3ccccc3)N2[C@@H]1c1ccc(OCCO)cc1 ?
result: inactive

query: Any idea what this test logged for CO[C@H]1O[C@H](CO)[C@@H](OC(=O)Nc2ccccc2-c2ccccc2)[C@H](OC(=O)Nc2ccc3c(c2)OCO3)[C@H]1OC(=O)Nc1ccc2c(c1)OCO2 ?
result: inactive

query: Hello, I am checking results. What call was entered for [N-]=[N+]=Nc1ccccc1[C@H]1OC(c2ccc(OCCCO)cc2)=N[C@@]1(CCS(=O)(=O)c1ccccc1)C(=O)NCCN1CCOCC1 ?
result: active

query: Fill in: this test's call for N#Cc1ccc(C(O)C2C=CC3C(=O)N(c4ccccc4)C(=O)C3N2Nc2ccccc2)cc1 (stereo unspecified) is ___
result: inactive

query: # lookup: test call for CC[C@H]1C2=C3C(CC[C@H]4C(OCc5ccc(F)cc5C(F)(F)F)OC[C@](C)([C@@H]34)N(C(=O)OC(C)(C)C)C2)C(COC)C1COC (stereo partly specified)
result: inactive

query: Name the outcome recorded for CC(C)(C)OC(=O)CC[C@@]1(C(=O)NCc2ccccc2)N=C(c2ccc(OCCCO)cc2)O[C@@H]1c1ccccc1N=[N+]=[N-] in the assay.
result: active

query: Look up the recorded call for C=CCN1C(=O)[C@@]2(CCS(=O)(=O)c3ccccc3)N=C(c3ccc(OCCCO)cc3)O[C@H]2c2ccccc21 in this test.
result: active

query: Recorded call for CN(C)C(=O)[C@@]1(Cc2ccccc2CN=[N+]=[N-])N=C(c2ccc(OCCCO)cc2)O[C@H]1c1ccccc1CN=[N+]=[N-] ?
result: active

query: So what was the verdict on COCCOC(=O)N1C(=O)[C@@]2(c3cc(C#CC4=CCCCC4)ccc31)[C@H](c1ccc(OCCO)cc1)N1[C@H](c3ccccc3)[C@H](c3ccccc3)OC(=O)[C@H]1[C@@H]2C(=O)NC[C@H](O)c1ccccc1 in this test?
result: inactive

query: # fetch the recorded call for COC(=O)c1c2oc(c1C(=O)OC)C(=O)N(C)Cc1cn(nn1)C[C@H](Cc1ccccc1)NC(=O)N[C@H](CO)CC2 here
result: inactive

query: Given CCOC(=O)c1ccc(NC(=O)O[C@H]2[C@H](OC(=O)Nc3ccc4c(c3)OCO4)[C@@H](OC(=O)Nc3ccc4c(c3)OCO4)[C@@H](OC)O[C@@H]2CO)cc1 , state the outcome it received in this test.
result: active

src = PubChem BioAssay
